biological target: JAK3 (Homo sapiens, UniProt P52333); construct: purchased Thermo fisher PV3855; assay: JAK3 biochemical assay (ADP-GLO Kinase Assay); details: B*: testing performed in a first testing facility; read-out: JAK3 IC50 (nM) Relative, B*
Sequence (P52333 781-1124 limits assumed): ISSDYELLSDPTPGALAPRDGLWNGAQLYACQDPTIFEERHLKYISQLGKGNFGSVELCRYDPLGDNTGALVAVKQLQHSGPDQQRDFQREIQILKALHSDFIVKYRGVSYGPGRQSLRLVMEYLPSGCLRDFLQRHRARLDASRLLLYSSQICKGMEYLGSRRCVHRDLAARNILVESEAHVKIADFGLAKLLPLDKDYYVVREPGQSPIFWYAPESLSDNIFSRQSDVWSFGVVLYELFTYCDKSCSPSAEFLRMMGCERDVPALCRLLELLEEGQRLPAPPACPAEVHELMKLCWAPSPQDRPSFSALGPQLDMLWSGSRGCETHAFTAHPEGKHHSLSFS
Parameter IC50: see the listing below.
QUANTITY KIND: IC50

| COMPOUND | QUANTITY KIND | REPORTED VALUE |
| --- | --- | --- |
| COc1cc2c(cc1Nc1ncc(F)c(N3CC(C(=O)O)c4ccccc43)n1)CN(C)CC2 (stereo not shown) [Example 109] | IC50 | 500 to 1000 nM |
| COc1cc2c(cc1Nc1ncc(Cl)c(N3CC(C)(CC(=O)O)c4ccc(F)cc43)n1)CN(C)CC2 (stereo not shown) [Example 151] | IC50 | ≤ 100 nM |
| COc1cc2c(cc1Nc1ncc(Cl)c(N3CC(C)(CC(=O)O)c4ccccc43)n1)CN(C)CC2 (single isomer, unassigned) [Example 148] | IC50 | ≤ 100 nM |
| COc1cc2c(cc1Nc1ncc(Cl)c(-n3cc(C(=O)O)c4ccccc43)n1)CN(C)CC2 [Example 35] | IC50 | 100 to 500 nM |
| CNC(=O)Cc1cn(-c2nc(Nc3cc4c(cc3OC)CCN(C)C4)ncc2Cl)c2ccccc12 [Example 136] | IC50 | 500 to 1000 nM |
| COc1ccc2c(c1)N(c1nc(Nc3cc4c(cc3OC)CCN(C)C4)ncc1Cl)CC2C(=O)O (stereo not shown) [Example 107] | IC50 | > 1000 nM |
| COc1cc2c(cc1Nc1ncc(C#N)c(N3CC(C(=O)O)c4ccccc43)n1)CN(C)CC2 (stereo not shown) [Example 110] | IC50 | > 1000 nM |
